Cited source: PubChem BioAssay AID1159580

# Procedure Summary: chemical genetic growth profiling, strain panel (AID 1159580);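 note: tested at 20 µM; growth read once vehicle control cultures reached saturation at 30 °C; 1 = growth at the plate median or of vehicle wells; lower values mean less growth of the strain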
# Condition Notes: S. cerevisiae deletion strains, growth OD, locus YNL128W, strain TEP1, active compounds read low
About 2,000 (36%) of roughly 5,500 compounds were called active. Another 18% or so got no clear call; they are omitted. The list shows a part of the results.
Mark YES only when normalized growth stays strictly below 1. Values equal to the cut-off are NO.

As a guide, the following entries are already answered.
COc1cc(OC)c2c(=O)c(-c3ccccc3)c(C)oc2c1OC    NO
CC(C)(C)c1ccc(C(O)CCCN2CCC(C(O)(c3ccccc3)c3ccccc3)CC2)cc1 (stereo unspecified)    NO

Q) normalized growth under 1? Item: C=CC(C1=CC(=O)C(OC)=CC1=O)c1ccc(OC)cc1 (stereo unspecified)
A) YES

Q) Also c1ccc2c(c1)cc1ccc3cccc4ccc2c1c34 , if possible.
A) NO

Q) Also O=[N+]([O-])c1ccc2nsnc2c1 , if possible.
A) YES

* * *

Catalogue of compounds with associated normalized growth
# Procedure Summary: chemical genetic growth profiling, strain panel (AID 1159580);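 note: tested at 20 µM; growth read once vehicle control cultures reached saturation at 30 °C; 1 = growth at the plate median or of vehicle wells; lower values mean less growth of the strain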
# Condition Notes: S. cerevisiae deletion strains, growth OD, locus YOR001W, strain rrp6, active compounds read low
Out of some 5,500 compounds screened, about 2,000 (36%) were called active. Not shown: some 18% with an inconclusive outcome. The list shows a part of the results.
Simply state the number, no unit and no words.

Guide cases for normalized growth, answers given:
Nc1ccc(S(=O)(=O)Nc2ccccn2)cc1    1.02
CN1C(CC(=O)c2ccccc2)CCCC1CC(O)c1ccccc1 (centres undefined)    0.997
NCCCC[C@H](N[C@@H](CCc1ccccc1)C(=O)O)C(=O)N1CCC[C@H]1C(=O)O    0.967
O=c1[nH]c(=O)n(C2C[C@@H](O)[C@@H](CO)O2)cc1F (some centres undefined)    0.987

Q) Request the reported normalized growth associated with COc1ccccc1OCCNCC(O)COc1cccc2[nH]c3ccccc3c12 (centres undefined)
A) 1.01

Q) Also O=C(NC(=O)c1c(F)cccc1F)Nc1ccc(Cl)cc1 , if possible.
A) 1.01

Q) Also CCN(CC)CCNC(=O)c1cc(S(C)(=O)=O)ccc1OC , if possible.
A) 0.968

* * *

# Procedure Summary: chemical genetic growth profiling, strain panel (AID 1159580);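 note: tested at 20 µM; growth read once vehicle control cultures reached saturation at 30 °C; 1 = growth at the plate median or of vehicle wells; lower values mean less growth of the strain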
# Condition Notes: S. cerevisiae deletion strains, growth OD, locus YLR262C, strain YPT6, active compounds read low
The whole screen tested about 5,500 compounds, of which about 2,000 (36%) were called active. Roughly 18% stayed inconclusive and do not appear here. This is one part of the list.
Measurement Type: normalized growth
Simply state the number, no unit and no words.

Guide cases for normalized growth, answers given:
O=C(O)c1cccnc1Nc1cccc(C(F)(F)F)c1    0.975
CN1CCCC12NCCc1c2[nH]c2ccccc12 (stereo not drawn)    0.976
c1ccc2c3c([nH]c2c1)CNCC3    0.993
O=C(NC(=S)NCc1ccncc1)c1ccccc1    0.978
Cc1occc(=O)c1O    1.01

Q) Request the reported normalized growth associated with O=C(COC(=O)c1ccccc1Nc1cccc(F)c1)c1ccccc1
A) 1.02

Q) Also C=C(C)[C@H]1CC=C(C(=O)O)CC1 , if possible.
A) 0.977

Q) Also O=C(COC(=O)c1ccccc1Nc1ccccc1)c1ccc(Cl)cc1 , if possible.
A) 0.987
